Parameter IC50: see the listing below.
Molecular target: GDP-loaded WT KRAS (Homo sapiens, UniProt P01116)
Sequence (P01116 1-188 isoform P01116-2): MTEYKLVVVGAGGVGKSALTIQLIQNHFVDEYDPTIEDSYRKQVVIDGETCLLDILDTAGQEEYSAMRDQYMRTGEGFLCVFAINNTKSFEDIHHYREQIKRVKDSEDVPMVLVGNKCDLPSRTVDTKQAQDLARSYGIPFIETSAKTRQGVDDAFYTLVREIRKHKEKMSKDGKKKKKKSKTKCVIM
Assay: KRAS WT Probe Displacement Assay
Assay type: binding
Details: WT KRAS 3 nM, biotinylated probe 1 60 nM; read-out: KRAS WT Probe Displacement Assay IC50

# MOLECULE, IC50
data = [
    ("Oc1cccc(F)c1-c1c(Cl)cc2c(N3CC4CCC(C3)N4)nc(OC[C@@]34CCCN3C[C@H](F)C4)nc2c1F", "990 nM"),
    ("CC(C)c1cc2c(N3CC4CCC(C3)N4)nc(OC[C@@]34CCCN3C[C@H](F)C4)nc2c(F)c1-c1ccc(F)c2sc(N)nc12", "37.8 nM"),
    ("Nc1nc2c(-c3c(C(F)(F)F)cc4c(N5CC6CCC(C5)N6)nc(OC[C@@]56CCCN5C[C@H](F)C6)nc4c3Cl)ccc(Cl)c2s1", "5 nM"),
    ("CN1C[C@H](F)C[C@H]1COc1nc(N2CC3CCC(C2)N3)c2cc(C(F)(F)F)c(-c3ccc(F)c4sc(N)nc34)c(F)c2n1", "33 nM"),
    ("CC1(N2CCCCC2)CN(c2nc(N3CC4CCC(C3)N4)c3cc(Cl)c(-c4ccc(F)c5sc(N)nc45)c(F)c3n2)C1", "660 nM"),
    ("CC1CCCC(C)N1C[C@H](C)Oc1nc(N2CC3CCC(C2)N3)c2cc(Cl)c(-c3ccc(F)c4sc(N)nc34)c(F)c2n1 (stereo partly drawn)", "1400 nM"),
    ("CC(F)CNC1C[C@H]2CC[C@@H]1N2c1nc(OC[C@@]23CCCN2C[C@H](F)C3)nc2c(F)c(-c3ccc(F)c4sc(N)nc34)c(C(F)(F)F)cc12 (stereo partly drawn)", "16 nM"),
    ("Nc1nc2c(-c3c(C(F)(F)F)cc4c(N5CC6CCC(C5)N6)nc(OC[C@@]56CCCN5C[C@H](F)C6)nc4c3Cl)ccc(F)c2s1", "5.1 nM"),
    ("C[C@@H](CN1CCC(F)CC1(C)C)Oc1nc(N2CC3CCC(C2)N3)c2cc(C(F)(F)F)c(-c3ccc(F)c4sc(N)nc34)c(F)c2n1 (stereo partly drawn)", "120 nM"),
    ("CN1C[C@H](F)C[C@H]1COc1nc(N2C3CCC2CNC3)c2cc(Cl)c(-c3ccc(F)c4sc(N)nc34)c(F)c2n1", "120 nM"),
    ("Nc1nc2c(-c3c(C(F)(F)F)cc4c(N5C6CCC5CNC6)nc(OC[C@@]56CCCN5C[C@H](F)C6)nc4c3F)ccc(F)c2s1", "2.6 nM"),
    ("CN1C[C@H](F)C[C@H]1COc1nc(N2CC3CCC(C2)N3)c2cc(Cl)c(-c3ccc(F)c4sc(N)nc34)c(Cl)c2n1", "47 nM"),
    ("Nc1nc2c(-c3c(OC(F)(F)F)cc4c(N5CC6CCC(C5)N6)nc(OC[C@@]56CCCN5C[C@H](F)C6)nc4c3F)ccc(F)c2s1", "25 nM"),
    ("Cc1cc(N)nc(-c2c(Cl)cc3c(N4C5CNCC4COC5)nc(OC[C@@]45CCCN4C[C@H](F)C5)nc3c2F)c1C(F)(F)F (stereo in doubt)", "49 nM"),
    ("Nc1nc2c(-c3c(C(F)(F)F)cc4c(N5C6CNCC5COC6)nc(OC[C@@]56CCCN5C[C@H](F)C6)nc4c3F)ccc(F)c2s1", "2.7 nM"),
]
